B1: HDV Ribozyme (parent)
chain: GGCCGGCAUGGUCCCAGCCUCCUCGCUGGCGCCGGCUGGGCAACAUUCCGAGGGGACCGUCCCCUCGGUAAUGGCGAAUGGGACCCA

- Variants of: B1
- test_summary: self-cleavage, relative activity (ratio to wild type); higher = more cleavage; co-transcriptional
readout_name: self-cleavage

Example variants with recorded self-cleavage:
G28C C64G ... 0.0791
G5C A8G ... 0
G68A G73C ... 0.257

Which measured self-cleavage value corresponds to C58U C85A ? 1.13

# iterate: U65A A78G 0.831

Origin of values: the RNAGym collection of RNA variant scans (doi:10.7554/elife.80360)
